target: PD-1/PD-L1 (Homo sapiens (Human))
assayInfo: PD-1/PD-L1 Homogeneous Time-Resolved Fluorescence (HTRF) Binding Assay
conditionsUsed: recombinant human PD-1 (3 nM) and PD-L1 (10 nM), 25° C., PBS pH 7.4
pIC50: −log10 of the molar value.
Examples of compounds with documented pIC50 follow.

Please review the entries below; each comes with its answer.
Cc1c(-c2nc3c(o2)CN(C(=O)CN2CCN(C)CC2)C3)cccc1-c1cccc(-c2nc3cc(CN4CC5CC4CC5C(=O)O)cc(C#N)c3o2)c1C (stereo not drawn) = ≥ 8.00
Cc1c(COc2cc(OCc3cncc(C#N)c3)c(CNCCO)cc2Cl)cccc1-c1cccc(-c2nc3cc(CN4CC[C@@H](C(=O)O)C4)cc(Cl)c3o2)c1C = 7.00 to 8.00
Cc1nc(CN2CC[C@H](O)C2)cnc1OCc1cccc(-c2cccc(-c3nc4cc(CN5CCC(C(=O)O)C5)cc(Cl)c4o3)c2C)c1Cl (stereo partly drawn) = ≥ 8.00
Cc1c(-c2nc3cc(CN4CCC(C(=O)O)CC4)cc(C#N)c3o2)cccc1-c1cccc(-c2nc3c(s2)CN(C(=O)CN(C)C)C3)c1C = ≥ 8.00
CCN(CCO)C1CCN(c2cccc(-c3cccc(-c4nc5cc(CN6CC[C@@H](C(=O)O)C6)cc(C#N)c5o4)c3C)c2Cl)CC1 = ≥ 8.00

Req: Could you share which pIC50 value was measured for "Cc1c(Nc2nccc3cc(CNC(C)(C)CO)cnc23)cccc1-c1cccc(-c2nc3cc(CN4CC[C@@](C)(C(=O)O)C4)cc(C#N)c3o2)c1C" ?
Resp: ≥ 8.00

====

Catalogue of molecules with associated IC50
target: PD-1/PD-L1 (Homo sapiens (Human))
assayInfo: PD-1/PD-L1 Homogeneous Time-Resolved Fluorescence (HTRF) Binding Assay
conditionsUsed: recombinant human PD-1 (3 nM) and PD-L1 (10 nM), 25° C., PBS pH 7.4

Some solved entries appear below for comparison.
Cc1c(-c2nc3cc(CN4CC[C@@](C)(C(=O)O)C4)cc(C#N)c3o2)cccc1-c1cccc(NC(=O)c2nc3c(n2C)CCN(C)C3)c1Cl = ≤ 10 nM
Cc1c(-c2nc3cc(CN4CC5CC4CC5C(=O)O)cc(C#N)c3o2)cccc1-c1cccc(-c2nc3c(s2)CN(C(=O)CN(C)C)C3)c1C (stereo not drawn) = ≤ 10 nM

Proceed to the following item.
Req: Suppose we examine the molecule "Cc1c(-c2nc3cc(CN4CC[C@@H](C(=O)O)C4)cc(C#N)c3o2)cccc1-c1cccc(NC(=O)c2nc3c(n2C)CCN(C)C3)c1Cl" ; what IC50 value has been reported?
Resp: ≤ 10 nM

====

target: PD-1/PD-L1 (Homo sapiens (Human), UniProt Q9NZQ7)
Sequence (Q9NZQ7 19-238): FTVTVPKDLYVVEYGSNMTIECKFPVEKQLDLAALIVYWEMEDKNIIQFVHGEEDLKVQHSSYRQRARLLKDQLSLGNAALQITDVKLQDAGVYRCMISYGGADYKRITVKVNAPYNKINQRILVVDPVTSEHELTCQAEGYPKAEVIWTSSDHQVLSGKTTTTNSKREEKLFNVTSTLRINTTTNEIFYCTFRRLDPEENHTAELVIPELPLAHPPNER
assayInfo: PD-1/PD-L1 Homogeneous Time-Resolved Fluorescence (HTRF) Binding Assay
conditionsUsed: recombinant human PD-1 (3 nM) and PD-L1 (10 nM), 25° C., PBS pH 7.4
readoutType: IC50

Cc1c(-c2nc3cc(CN4CC[C@H](C(=O)O)C4)cc(C#N)c3o2)cccc1-c1cccc(Nc2nccc3cc(CN4CC[C@H](O)C4)cnc23)c1Cl = ≤ 10 nM

Req: For the compound shown here, "Cc1c(-c2nc3cc(CN4CCCC[C@H]4C(=O)O)cc(Cl)c3o2)cccc1-c1cccc(NC(=O)c2ccc(CN3CC[C@H](O)C3)cn2)c1Cl" , give the reported IC50.
Resp: ≤ 10 nM

Req: Now try "Cc1c(-c2nc3c(o2)CN(C(=O)CN2CC[C@@H](O)C2)C3)cccc1-c1cccc(-c2nc3cc(CN4CC[C@@](C)(C(=O)O)C4)cc(C#N)c3o2)c1C" .
Resp: ≤ 10 nM

Req: Quick one: "Cc1c(-c2nc3cc(CN4CC[C@@](C)(C(=O)O)C4)cc(C#N)c3o2)cccc1-c1cccc(-c2nc3c(s2)CN(C(=O)CN[C@H]2C[C@@H](O)C2)C3)c1C"
Resp: ≤ 10 nM

Req: Would you kindly repeat that for Cc1c(-c2nc3cc(CN4CC[C@@H](C(=O)O)C4)cc(C#N)c3o2)cccc1-c1cccc(Nc2nccc3cc(C4CCCN4)cnc23)c1Cl (stereo partly drawn) ?
Resp: ≤ 10 nM

Req: What do you have for "Cc1c(NC(=O)c2nc3c(n2C)CCN(C2CC(F)(F)C2)C3)cccc1-c1cccc(-c2nc3cc(CN4CC[C@H](C(=O)O)C4)cc(C#N)c3o2)c1C" ?
Resp: 10 to 100 nM

====

target: PD-1/PD-L1 (Homo sapiens (Human), UniProt Q9NZQ7)
assayInfo: PD-1/PD-L1 Homogeneous Time-Resolved Fluorescence (HTRF) Binding Assay
conditionsUsed: recombinant human PD-1 (3 nM) and PD-L1 (10 nM), 25° C., PBS pH 7.4
pIC50: −log10 of the molar value.
Reported pIC50 is given for each of the following molecules.

Cc1c(Nc2nccc3cc(C4CN(CCO)C4)cnc23)cccc1-c1cccc(-c2nc3cc(CN4CC[C@@H](C(=O)O)C4)cc(C#N)c3o2)c1C = ≥ 8.00

Req: Record request: pIC50 value, item "Cc1c(-c2nc3cc(CN4CC[C@@H](O)C4)cc(C#N)c3o2)cccc1-c1cccc(NC(=O)c2nc3c(n2C)CCN(C[C@H]2CC[C@H](C(=O)O)CC2)C3)c1Cl"
Resp: ≥ 8.00

Req: Same again, this time with "Cc1c(Nc2ncnc3cc(CN4CC[C@@H](O)C4)cnc23)cccc1-c1cccc(-c2nc3cc(CN4CCC(C(=O)O)CC4)cc(C#N)c3o2)c1C"
Resp: ≥ 8.00

Req: Now this one: "Cc1c(-c2nc3c(o2)CN(C(=O)CN2CC(C)(O)C2)C3)cccc1-c1cccc(-c2nc3cc(CN4CC[C@@H](C(=O)O)C4)cc(C#N)c3o2)c1C"
Resp: ≥ 8.00

Req: Same question for "Cc1c(-c2nc3cc(CN4CC5(CC(C(=O)O)C5)C4)cc(C#N)c3o2)cccc1-c1cccc(-c2nc3c(s2)CN(C(=O)CN(C)CCO)C3)c1C" please.
Resp: ≥ 8.00

Req: Would you kindly repeat that for Cc1c(-c2nc3c(o2)CN(C(=O)CN2CCC(O)CC2)C3)cccc1-c1cccc(-c2nc3cc(CN4CC5CC4CC5C(=O)O)cc(C#N)c3o2)c1C (centres unmarked) ?
Resp: ≥ 8.00

====

pIC50: recorded values
target: PD-1/PD-L1 (Homo sapiens (Human), UniProt Q9NZQ7)
assayInfo: PD-1/PD-L1 Homogeneous Time-Resolved Fluorescence (HTRF) Binding Assay
conditionsUsed: recombinant human PD-1 (3 nM) and PD-L1 (10 nM), 25° C., PBS pH 7.4
pIC50: −log10 of the molar value.

Req: Query: pIC50; subject: "Cc1c(-c2nc3cc(CN4CC[C@@H](C(=O)O)C4)cc(Cl)c3o2)cccc1-c1cccc(-c2nc3c(s2)CN(C(C)C)CC3)c1C"
Resp: ≥ 8.00

Req: Field entry: "Cc1c(-c2nc3cc(CN4CC[C@@H](C(=O)O)C4)cc(C#N)c3o2)cccc1-c1cccc(-n2cc3c(n2)CN(C)C3)c1Cl"
Resp: ≥ 8.00

Req: Likewise for "Cc1c(-c2nc3cc(CN4CC[C@@](C)(C(=O)O)C4)cc(C#N)c3o2)cccc1-c1cccc(NC(=O)c2nc3c(n2C)CCN(C[C@@H](C)O)C3)c1Cl" ?
Resp: ≥ 8.00

====

target: PD-1/PD-L1 (Homo sapiens (Human), UniProt Q9NZQ7)
assayInfo: PD-1/PD-L1 Homogeneous Time-Resolved Fluorescence (HTRF) Binding Assay
conditionsUsed: recombinant human PD-1 (3 nM) and PD-L1 (10 nM), 25° C., PBS pH 7.4
In this section we review reported IC50 values for a set of compounds.

Cc1c(-c2nc3cc(CN4CC[C@@H](C(=O)O)C4)cc(C#N)c3o2)cccc1-c1cccc(-n2cc3c(n2)CN(C(C)C)C3)c1Cl = ≤ 10 nM

Req: What value of IC50 has been reported for the following compound? Cc1c(-c2nc3cc(CN4CC[C@@](C)(C(=O)O)C4)cc(C#N)c3o2)cccc1-c1cccc(NC(=O)c2nc3c(n2C)CC(C)NC3)c1Cl (stereo partly drawn)
Resp: ≤ 10 nM

Req: # iterate: "Cc1c(NC(=O)c2nc3c(n2C)CCN(C)C3)cccc1-c1cccc(-c2nc3cc(CN(C)CCC(=O)O)cc(Cl)c3o2)c1C"
Resp: ≤ 10 nM

====

target: PD-1/PD-L1 (Homo sapiens (Human), UniProt Q9NZQ7)
assayInfo: PD-1/PD-L1 Homogeneous Time-Resolved Fluorescence (HTRF) Binding Assay
conditionsUsed: recombinant human PD-1 (3 nM) and PD-L1 (10 nM), 25° C., PBS pH 7.4
Items are presented alongside their recorded IC50.

Would you please look over these solved cases?
Cc1c(-c2nc3c(o2)CN(C(=O)CN2CC4CC2CN4C)C3)cccc1-c1cccc(-c2nc3cc(CN4CC[C@@H](C(=O)O)C4)cc(C#N)c3o2)c1C (stereo partly shown) = ≤ 10 nM
Cc1c(Nc2nccc3cc(CN4CC[C@@](C)(C(=O)O)C4)cnc23)cccc1-c1cccc(-c2nc3cc(CN4CC[C@@H](O)C4)cc(C#N)c3o2)c1C = ≤ 10 nM
Cc1c(-c2nc3cc(CN4CC[C@@H](C(=O)O)C4)cc(C#N)c3o2)cccc1-c1cccc(-c2nc3c(s2)CN(C(=O)CN2CC[C@@](C)(O)C2)C3)c1C = ≤ 10 nM
Cc1c(Nc2nccc3cc(CN[C@@H](C)CO)cnc23)cccc1-c1cccc(-c2nc3cc(CN4CCC(C(=O)O)CC4)cc(C#N)c3o2)c1C = ≤ 10 nM
Cc1c(Nc2nccc3cc(CN4CC[C@@H](O)C4)cnc23)cccc1-c1cccc(-c2nc3cc(CN4CC[C@@H](C(=O)O)C4)cc(C#N)c3o2)c1C = ≤ 10 nM
Cc1c(Nc2nccc3cc(CNCC4(O)CC4)cnc23)cccc1-c1cccc(-c2nc3cc(CN4CC[C@@](C)(C(=O)O)C4)cc(C#N)c3o2)c1C = ≤ 10 nM
Cc1c(-c2nc3c(o2)CCNC3)cccc1-c1cccc(-c2nc3cc(CN4CC[C@@H](C(=O)O)C4)cc(Cl)c3o2)c1C = ≤ 10 nM
Cc1c(Nc2nccc3cc(CCN4CC[C@@H](O)C4)cnc23)cccc1-c1cccc(-c2nc3cc(CN4CC[C@@H](C(=O)O)C4)cc(C#N)c3o2)c1C = ≤ 10 nM

Req: Item "Cc1c(-c2nc3c(o2)CN(C(=O)CN2CCCC[C@H]2C(=O)O)C3)cccc1-c1cccc(-c2nc3cc(CN4CC[C@@H](O)C4)cc(C#N)c3o2)c1C" has what recorded IC50?
Resp: ≤ 10 nM

Req: Param item: "Cc1c(-c2nc3cc(CN4CC[C@H](C(=O)O)C4)cc(C#N)c3o2)cccc1-c1cccc(NC(=O)c2nc3c(n2C)CCN(C)C3)c1Cl"
Resp: ≤ 10 nM

Provenance of the data: patent US10308644B2
